Molecular target: MAPK9 (human)
Experiment: KINOMEscan competition binding
Conditions: compound 10.0 µM
Give kinase still bound, per cent of control for every item shown.
State the answer as a number, implicitly in %.

Give its kinase still bound, per cent of control value. Item: Cc1cc([C@@H](C)Nc2ccccc2C(=O)O)c2nc(N3CCOCC3)cc(=O)n2c1
66

Recorded kinase still bound, per cent of control for COc1cc(N2CCN(C)CC2)ccc1Nc1nc(N)c(C(=O)c2c(Cl)cccc2Cl)s1 , please?
100

Query: kinase still bound, per cent of control; subject: O=C(NC1CC1)c1cccc(-c2ccc3c(NC(=O)C4CC4)n[nH]c3c2)c1
50

Sample C=CC(=O)Nc1cc(NC(=O)c2ccc(C)c(NC(=O)c3ccno3)c2)cc(C(F)(F)F)c1 — what was its kinase still bound, per cent of control?
94

Would you kindly share the measured kinase still bound, per cent of control for CN(C)C/C=C/C(=O)Nc1cccc(Nc2ncc3c(n2)N(C)c2ccccc2C(=O)N3C)c1 ?
100

Requested field: kinase still bound, per cent of control. Item: CCN1CCN(Cc2ccc(Nc3ncc4c(n3)N(C)c3ccccc3C(=O)N4C)cc2C(F)(F)F)CC1
57

Param item = C[C@@H](Oc1cc(-n2cnc3ccc(CN4CCN(C)CC4)cc32)sc1C(N)=O)c1ccccc1C(F)(F)F ; retrieve measured kinase still bound, per cent of control.
100

What value of kinase still bound, per cent of control has been recorded for this entry: Cc1ccc(NC(=O)c2cccc(C(C)(C)C#N)c2)cc1Nc1ccc2ncn(C)c(=O)c2c1
1.8

# query: kinase still bound, per cent of control of entry Cc1ccc2nc(NCCN)c3ncc(C)n3c2c1
44

Fill in the blank: the reported kinase still bound, per cent of control of C=CC(=O)Nc1cccc(Nc2nc(N[C@H]3CC[C@H](N(C)C)CC3)nc3c2ncn3C(C)C)c1 is ____.
100

Which measured kinase still bound, per cent of control value corresponds to COc1cc(C(=O)NC2CCN(C)CC2)ccc1Nc1ncc2c(n1)N(C1CCCC1)C(C)CC(=O)N2C (centres undefined) ?
100

# query: kinase still bound, per cent of control of entry CCC(=O)N1CCN(c2ccc(-n3c(=O)ccc4cnc5ccc(-c6cnc7ccccc7c6)cc5c43)cc2C(F)(F)F)CC1
40

Give the measured kinase still bound, per cent of control of Cn1c(=O)n(-c2ccc(C(C)(C)C#N)cc2)c2c3cc(-c4cnc5ccccc5c4)ccc3ncc21 .
100

# input compound: Nc1ccc(-c2ccc3ncc4ccc(=O)n(-c5cccc(C(F)(F)F)c5)c4c3c2)cn1 ; wanted: its kinase still bound, per cent of control
89

Return reported kinase still bound, per cent of control; argument: O=C(NOC[C@H](O)CO)c1ccc(F)c(F)c1Nc1ccc(I)cc1F
88

Fill blank: measured kinase still bound, per cent of control of the compound CCOc1cc2ncc(C#N)c(Nc3ccc(OCc4ccccn4)c(Cl)c3)c2cc1NC(=O)/C=C/CN(C)C is ____.
52

Tell me the measured kinase still bound, per cent of control of C=CC(=O)Nc1cccc(Oc2nc(Nc3ccc(N4CCN(C)CC4)cc3OC)ncc2Cl)c1 , please.
100

Query (compound): N#Cc1c(NC(=O)c2cccc3ccccc23)sc2c1CCCC2 ; field requested: kinase still bound, per cent of control
4.8

Endpoint output: kinase still bound, per cent of control of O=C(O)c1ccc(Nc2ncc3c(n2)-c2ccc(Cl)cc2C(c2c(F)cccc2F)=NC3)cc1 . Value?
57
